target: human GABAAR α1β1γ2 (Homo sapiens, UniProt P14867+P18505+P18507); test: Voltage-clamp, modulation of GABA EC10 response in Xenopus laevis oocytes; type: cell-based; conditions: maximum modulation of the GABA EC10 response, mean ± S.E.M. (n = 3)
Sequence (P14867 28-456): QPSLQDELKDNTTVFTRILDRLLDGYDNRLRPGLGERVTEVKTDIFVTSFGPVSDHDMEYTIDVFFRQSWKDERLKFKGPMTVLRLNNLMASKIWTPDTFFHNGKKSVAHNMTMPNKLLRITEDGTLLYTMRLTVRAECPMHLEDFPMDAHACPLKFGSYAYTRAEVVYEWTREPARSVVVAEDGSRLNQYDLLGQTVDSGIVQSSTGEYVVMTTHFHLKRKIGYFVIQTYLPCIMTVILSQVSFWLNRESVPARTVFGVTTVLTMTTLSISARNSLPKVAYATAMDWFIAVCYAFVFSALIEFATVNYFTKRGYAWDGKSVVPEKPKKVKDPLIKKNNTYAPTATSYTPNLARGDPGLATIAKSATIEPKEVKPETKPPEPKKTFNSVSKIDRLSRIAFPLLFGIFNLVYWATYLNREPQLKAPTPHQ
Sequence (P18505 26-474): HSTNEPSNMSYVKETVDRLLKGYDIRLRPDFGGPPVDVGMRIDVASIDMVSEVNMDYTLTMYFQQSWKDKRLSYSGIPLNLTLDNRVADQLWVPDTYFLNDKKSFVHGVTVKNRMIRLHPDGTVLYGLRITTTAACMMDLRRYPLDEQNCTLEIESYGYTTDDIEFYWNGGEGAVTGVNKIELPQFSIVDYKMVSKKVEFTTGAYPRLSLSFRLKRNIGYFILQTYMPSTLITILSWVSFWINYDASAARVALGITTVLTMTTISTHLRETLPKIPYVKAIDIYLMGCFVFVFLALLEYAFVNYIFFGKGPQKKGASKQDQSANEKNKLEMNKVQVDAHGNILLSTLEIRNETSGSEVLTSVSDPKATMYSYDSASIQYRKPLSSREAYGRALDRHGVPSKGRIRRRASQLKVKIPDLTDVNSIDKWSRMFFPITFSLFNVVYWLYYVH
Sequence (P18507 40-475): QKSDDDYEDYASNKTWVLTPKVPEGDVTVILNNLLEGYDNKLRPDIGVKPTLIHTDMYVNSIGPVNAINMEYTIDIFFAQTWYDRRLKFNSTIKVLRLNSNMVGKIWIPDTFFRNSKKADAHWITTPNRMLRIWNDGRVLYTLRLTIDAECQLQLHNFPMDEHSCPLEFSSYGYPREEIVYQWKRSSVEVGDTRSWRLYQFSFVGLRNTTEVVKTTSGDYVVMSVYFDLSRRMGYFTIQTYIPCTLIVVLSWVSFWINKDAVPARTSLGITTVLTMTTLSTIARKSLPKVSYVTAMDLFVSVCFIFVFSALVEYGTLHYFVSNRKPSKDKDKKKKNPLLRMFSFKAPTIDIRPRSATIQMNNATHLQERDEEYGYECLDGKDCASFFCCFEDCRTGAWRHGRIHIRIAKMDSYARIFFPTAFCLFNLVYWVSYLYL
PROPERTY_NAME: Max Mod ± SEM (% control)
Use % control as the unit, but write only the number.

C[C@@]1(O)CC[C@@]2(C)[C@@H](CC[C@@H]3[C@@H]2CC[C@]2(C)[C@@H](c4cc(CO)on4)CC[C@@H]32)C1 [UCI-50027] | 472

# input Give Max Mod ± SEM (human GABAAR α1β1γ2 (Homo sapiens, UniProt P14867+P18505+P18507)) of the following molecule: CC(=O)[C@H]1CC[C@H]2[C@@H]3CC[C@H]4C[C@](C)(O)CC[C@]4(C)[C@H]3CC[C@]12C [Ganaxolone]
# output 1006

# input Can you look up Max Mod ± SEM on human GABAAR α1β1γ2 (Homo sapiens, UniProt P14867+P18505+P18507) for C[C@@]1(O)CC[C@H]2[C@H](CC[C@@H]3[C@@H]2CC[C@]2(C)[C@@H](C(=O)Cn4cc(C#N)cn4)CC[C@@H]32)C1 [SAGE-217] ?
# output 488

# input Checklist item: Max Mod ± SEM tested on human GABAAR α1β1γ2 (Homo sapiens, UniProt P14867+P18505+P18507), entry CC(=O)[C@H]1CC[C@H]2[C@@H]3CC[C@H]4C[C@H](O)CC[C@]4(C)[C@H]3CC[C@]12C [AlloP, 5α-pregnan-3α-ol-20-one] , value?
# output 817

----------
target: human GABAAR α4β3δ (Homo sapiens, UniProt O14764+P28472+P48169); assay: Voltage-clamp, modulation of GABA EC10 response in Xenopus laevis oocytes; assay type: cell-based; settings: maximum modulation of the GABA EC10 response, mean ± S.E.M. (n = 3)
Sequence (P48169 36-554): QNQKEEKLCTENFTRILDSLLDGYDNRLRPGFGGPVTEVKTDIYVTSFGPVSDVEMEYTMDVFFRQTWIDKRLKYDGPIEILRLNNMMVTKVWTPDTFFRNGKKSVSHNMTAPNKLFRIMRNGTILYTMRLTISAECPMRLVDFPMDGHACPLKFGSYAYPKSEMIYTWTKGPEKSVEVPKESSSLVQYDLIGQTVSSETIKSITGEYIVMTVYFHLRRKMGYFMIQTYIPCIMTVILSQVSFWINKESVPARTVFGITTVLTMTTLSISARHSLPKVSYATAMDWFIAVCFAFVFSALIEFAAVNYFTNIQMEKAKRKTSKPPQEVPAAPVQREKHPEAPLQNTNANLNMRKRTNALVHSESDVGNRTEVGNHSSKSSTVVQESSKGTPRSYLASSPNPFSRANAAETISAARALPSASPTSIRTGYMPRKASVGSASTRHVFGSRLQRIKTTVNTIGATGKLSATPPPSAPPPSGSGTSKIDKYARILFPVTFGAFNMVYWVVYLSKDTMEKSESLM
Sequence (P28472 26-473): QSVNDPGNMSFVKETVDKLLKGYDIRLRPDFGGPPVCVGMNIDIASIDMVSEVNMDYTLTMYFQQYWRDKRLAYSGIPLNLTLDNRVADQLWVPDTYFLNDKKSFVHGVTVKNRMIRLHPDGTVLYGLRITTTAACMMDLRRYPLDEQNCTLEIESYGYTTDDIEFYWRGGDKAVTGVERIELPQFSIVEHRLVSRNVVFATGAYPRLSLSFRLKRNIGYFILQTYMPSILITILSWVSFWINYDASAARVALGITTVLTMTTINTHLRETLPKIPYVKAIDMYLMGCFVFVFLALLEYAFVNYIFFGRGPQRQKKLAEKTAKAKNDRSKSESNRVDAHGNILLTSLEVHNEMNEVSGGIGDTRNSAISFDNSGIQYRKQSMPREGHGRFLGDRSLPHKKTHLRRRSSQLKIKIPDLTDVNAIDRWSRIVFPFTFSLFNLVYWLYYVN
Sequence (O14764 25-452): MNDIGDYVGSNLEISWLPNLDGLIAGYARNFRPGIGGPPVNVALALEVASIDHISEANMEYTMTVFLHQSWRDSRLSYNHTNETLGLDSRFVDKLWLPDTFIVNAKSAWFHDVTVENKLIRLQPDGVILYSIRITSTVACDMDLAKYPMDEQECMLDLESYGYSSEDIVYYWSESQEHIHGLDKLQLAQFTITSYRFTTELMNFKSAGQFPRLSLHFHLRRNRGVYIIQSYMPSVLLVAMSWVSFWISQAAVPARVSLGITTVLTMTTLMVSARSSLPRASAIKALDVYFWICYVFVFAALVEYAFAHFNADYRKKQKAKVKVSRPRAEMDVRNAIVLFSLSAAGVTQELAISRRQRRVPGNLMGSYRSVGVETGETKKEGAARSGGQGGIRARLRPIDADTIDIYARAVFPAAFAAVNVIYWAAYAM
Quick reference: Max Mod ± SEM of the listed items.
# number only, unit % control dropped from output

Illustrative cases are given below, each with its answer.
CC(=O)[C@H]1CC[C@H]2[C@@H]3CC[C@H]4C[C@H](O)CC[C@]4(C)[C@H]3CC[C@]12C [AlloP, 5α-pregnan-3α-ol-20-one] | 1401
CC(=O)[C@H]1CC[C@H]2[C@@H]3CC[C@H]4C[C@](C)(O)CC[C@]4(C)[C@H]3CC[C@]12C [Ganaxolone] | 1710
C[C@@]1(O)CC[C@@]2(C)[C@@H](CC[C@@H]3[C@@H]2CC[C@]2(C)[C@@H](c4cc(CO)on4)CC[C@@H]32)C1 [UCI-50027] | 919

Proceed to the following item.
# input I would be grateful if you could share the reported Max Mod ± SEM for C[C@@]1(O)CC[C@H]2[C@H](CC[C@@H]3[C@@H]2CC[C@]2(C)[C@@H](C(=O)Cn4cc(C#N)cn4)CC[C@@H]32)C1 [SAGE-217] .
# output 783

----------
molecular target: human GABAAR α2β2γ2 (Homo sapiens, UniProt P18507+P47869+P47870); experiment: Voltage-clamp, modulation of GABA EC10 response in Xenopus laevis oocytes; format: cell-based; details: maximum modulation of the GABA EC10 response, mean ± S.E.M. (n = 3)
Sequence (P47869 29-451, one chain of several): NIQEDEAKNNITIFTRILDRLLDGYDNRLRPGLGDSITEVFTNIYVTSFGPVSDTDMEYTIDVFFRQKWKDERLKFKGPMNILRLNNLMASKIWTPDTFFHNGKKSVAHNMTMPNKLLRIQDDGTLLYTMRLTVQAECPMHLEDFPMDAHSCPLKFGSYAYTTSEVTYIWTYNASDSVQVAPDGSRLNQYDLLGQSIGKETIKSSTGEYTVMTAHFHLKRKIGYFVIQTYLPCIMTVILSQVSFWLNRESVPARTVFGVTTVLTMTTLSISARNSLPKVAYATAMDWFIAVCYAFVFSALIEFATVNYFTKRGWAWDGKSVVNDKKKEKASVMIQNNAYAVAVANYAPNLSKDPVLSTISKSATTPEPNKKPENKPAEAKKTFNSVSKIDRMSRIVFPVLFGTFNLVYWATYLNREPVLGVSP
Sequence (P47870 26-512, one chain of several): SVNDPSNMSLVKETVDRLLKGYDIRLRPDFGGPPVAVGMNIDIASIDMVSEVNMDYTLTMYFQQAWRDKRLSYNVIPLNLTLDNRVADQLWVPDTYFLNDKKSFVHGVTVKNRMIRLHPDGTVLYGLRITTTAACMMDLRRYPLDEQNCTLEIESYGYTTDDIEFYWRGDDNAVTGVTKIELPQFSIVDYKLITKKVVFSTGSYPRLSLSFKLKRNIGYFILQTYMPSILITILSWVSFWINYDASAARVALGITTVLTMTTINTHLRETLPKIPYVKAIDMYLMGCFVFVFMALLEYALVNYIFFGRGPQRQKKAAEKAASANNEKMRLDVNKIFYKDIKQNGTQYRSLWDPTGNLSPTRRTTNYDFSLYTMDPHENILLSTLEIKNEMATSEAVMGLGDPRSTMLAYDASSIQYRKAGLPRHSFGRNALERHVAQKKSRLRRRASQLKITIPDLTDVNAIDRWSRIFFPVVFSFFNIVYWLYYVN
PROPERTY_NAME: Max Mod ± SEM (% control)
Numbers only here, please. The scale is % control.

# input I'm curious: which Max Mod ± SEM was measured for C[C@@]1(O)CC[C@@]2(C)[C@@H](CC[C@@H]3[C@@H]2CC[C@]2(C)[C@@H](c4cc(CO)on4)CC[C@@H]32)C1 [UCI-50027] tested on human GABAAR α2β2γ2 (Homo sapiens, UniProt P18507+P47869+P47870)?
# output 595

# input Give human GABAAR α2β2γ2 (Homo sapiens, UniProt P18507+P47869+P47870) Max Mod ± SEM for CC(=O)[C@H]1CC[C@H]2[C@@H]3CC[C@H]4C[C@](C)(O)CC[C@]4(C)[C@H]3CC[C@]12C [Ganaxolone]
# output 646

# input Enter reported Max Mod ± SEM observed with human GABAAR α2β2γ2 (Homo sapiens, UniProt P18507+P47869+P47870) for C[C@@]1(O)CC[C@H]2[C@H](CC[C@@H]3[C@@H]2CC[C@]2(C)[C@@H](C(=O)Cn4cc(C#N)cn4)CC[C@@H]32)C1 [SAGE-217]
# output 1355

# input Param readout = Max Mod ± SEM; param system = human GABAAR α2β2γ2 (Homo sapiens, UniProt P18507+P47869+P47870); param query = CC(=O)[C@H]1CC[C@H]2[C@@H]3CC[C@H]4C[C@H](O)CC[C@]4(C)[C@H]3CC[C@]12C [AlloP, 5α-pregnan-3α-ol-20-one] ; response: value
# output 485

----------
target: human GABAAR α1β2γ2 (Homo sapiens, UniProt P14867+P18507+P47870); experiment: Voltage-clamp, modulation of GABA EC10 response in Xenopus laevis oocytes; type: cell-based; settings: maximum modulation of the GABA EC10 response, mean ± S.E.M. (n = 3)
Sequence (P47870 26-512, one chain of several): as the sequence (P47870 26-512, one chain of several) above
PROPERTY_NAME: Max Mod ± SEM (% control)
All answers are understood in % control, so give the number only.

CC(=O)[C@H]1CC[C@H]2[C@@H]3CC[C@H]4C[C@H](O)CC[C@]4(C)[C@H]3CC[C@]12C [AlloP, 5α-pregnan-3α-ol-20-one] | 909

# input Any idea what Max Mod ± SEM came out for CC(=O)[C@H]1CC[C@H]2[C@@H]3CC[C@H]4C[C@](C)(O)CC[C@]4(C)[C@H]3CC[C@]12C [Ganaxolone] on human GABAAR α1β2γ2 (Homo sapiens, UniProt P14867+P18507+P47870)?
# output 1151

# input Form field: Max Mod ± SEM recorded for C[C@@]1(O)CC[C@@]2(C)[C@@H](CC[C@@H]3[C@@H]2CC[C@]2(C)[C@@H](c4cc(CO)on4)CC[C@@H]32)C1 [UCI-50027] with human GABAAR α1β2γ2 (Homo sapiens, UniProt P14867+P18507+P47870) (enter value)
# output 587

# input # value lookup — system human GABAAR α1β2γ2 (Homo sapiens, UniProt P14867+P18507+P47870), readout Max Mod ± SEM, item C[C@@]1(O)CC[C@H]2[C@H](CC[C@@H]3[C@@H]2CC[C@]2(C)[C@@H](C(=O)Cn4cc(C#N)cn4)CC[C@@H]32)C1 [SAGE-217]
# output 823
